protocol.details: chemical genetic growth profiling, strain panel (AID 1159580);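 further: tested at 20 µM; growth read once vehicle control cultures reached saturation at 30 °C; 1 = growth at the plate median or of vehicle wells; lower values mean less growth of the strain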
measurement.context: S. cerevisiae deletion strains, growth OD, locus YJL134W, strain LCB3, hits give low values
In all, about 5,500 compounds went through this assay and about 2,000 (36%) were called active. Another 18% or so got no clear call; they are omitted. Some of the results follow.
Below, each of the compounds is paired with its reported normalized growth value.

compound	normalized growth
CC(=O)c1ccc(O)c(CC=C(C)C)c1	0.974
CO[C@H]1CC(O[C@@H]2/C(C)=C/C[C@@H]3C[C@@H](C[C@]4(CC[C@H](C)[C@@H](C5CCCCC5)O4)O3)OC(=O)[C@@H]3C=C(C)/C(=N\O)[C@H]4OC/C(=C\C=C\[C@@H]2C)[C@]43O)O[C@@H](C)C1O (some centres undefined)	0.984
CN(C)[C@@H]1C(=O)C(C(N)=O)=C(O)[C@@]2(O)C(=O)C3=C(O)c4c(O)ccc(Cl)c4[C@@](C)(O)[C@H]3C[C@@H]12	1.01
COc1cc(C(C)=O)cc(OC)c1O	0.993
CC(C)CCCC(C)[C@H]1CCC2C3CC[C@@H]4C[C@H](O)CC[C@]4(C)C3CC[C@@]21C (some centres undefined)	1.01
CC(C)CCCC(C)C1CCC2C3CC(=O)[C@H]4C[C@@H](O)CC[C@]4(C)C3CC[C@]12C (some centres undefined)	1.01
CC(=O)c1cc(CC=C(C)C)c(O)c(CC=C(C)C)c1	0.983
O=C(O)c1cc(O)c2c(c1)[C@@H]([C@H]1c3cc(C(=O)O)cc(O)c3C(=O)c3c(O[C@H]4O[C@H](CO)[C@@H](O)[C@H](O)[C@H]4O)cccc31)c1cccc(O[C@H]3O[C@H](CO)[C@@H](O)[C@H](O)[C@H]3O)c1C2=O	1.02
Oc1c(Cl)cc(Cl)cc1Sc1cc(Cl)cc(Cl)c1O	0.989
Cc1cc(=O)[nH]c(=S)[nH]1	1.01
C=C1C[C@]23C[C@@]1(O)CC[C@H]2[C@@]12C=C[C@H](O)[C@@](C)(C(=O)O1)[C@H]2[C@@H]3C(=O)O	0.99
CC(C)CCCC(C)[C@H]1CCC2C3CC=C4C[C@@H](O)CC[C@]4(C)C3CC[C@@]21C (some centres undefined)	1.01
CC(C)CCCC(C)C1CCC2C3C[C@@H](O)[C@@]4(O)C[C@@H](O)CC[C@]4(C)C3CC[C@]12C (some centres undefined)	1.03
CC(C)CCCC(C)[C@H]1CCC2C3CC=C4CC(=O)CC[C@]4(C)C3CC[C@@]21C (some centres undefined)	0.982

---

protocol.details: chemical genetic growth profiling, strain panel (AID 1159580);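 further: tested at 20 µM; growth read once vehicle control cultures reached saturation at 30 °C; 1 = growth at the plate median or of vehicle wells; lower values mean less growth of the strain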
measurement.context: S. cerevisiae deletion strains, growth OD, locus YLR370C, strain arc18, hits give low values
The campaign covered roughly 5,500 compounds. About 2,000 (36%) were called active. Inconclusive results (about 18%) are left out. Some of the results follow.
measurement.kind: normalized growth

> print(dat)
                                    compound  endpoint.result
 1       CCN(CC)CCOCCOC(=O)C1(c2ccccc2)CCCC1            0.998
 2          CN(C)CCCN1c2ccccc2Sc2ccc(Cl)cc21            0.067
 3              CN(C)CCCN1c2ccccc2Sc2ccccc21                1
 4             CN(C)CCCN1c2ccccc2CCc2ccccc21             1.01
 5  CCN1CCN(C(=O)NC(C(=O)N[C@@H]2C(=O)N3[C@@H]2SC(C)(C)[C@@H]3C(=O)O)c2ccccc2)C(=O)C1=O (stereo partly specified)             1.01
 6  CC(C)=CC1C(C(=O)O)C1(C)C (stereo unspecified)            0.976
 7         CN(C)CCCN1c2ccccc2CCc2ccc(Cl)cc21            0.993
 8  CC(CCC(=O)O)[C@H]1CCC2C3CC[C@@H]4C[C@H](O)CC[C@]4(C)C3C=C[C@@]21C (stereo partly specified)            0.955
 9                                      CNNC             1.01
10          C/C1=C/CC(C)(C)/C=C/C/C(C)=C/CC1             1.01
11  CC(C)CCCC(C)C1CCC2C3=CC[C@H]4C[C@@H](O)CC[C@]4(C)C3CC[C@@]21C (stereo partly specified)            0.964
